- assayed-target: H2 (Homo sapiens)
- Sequence (P25021 whole entry): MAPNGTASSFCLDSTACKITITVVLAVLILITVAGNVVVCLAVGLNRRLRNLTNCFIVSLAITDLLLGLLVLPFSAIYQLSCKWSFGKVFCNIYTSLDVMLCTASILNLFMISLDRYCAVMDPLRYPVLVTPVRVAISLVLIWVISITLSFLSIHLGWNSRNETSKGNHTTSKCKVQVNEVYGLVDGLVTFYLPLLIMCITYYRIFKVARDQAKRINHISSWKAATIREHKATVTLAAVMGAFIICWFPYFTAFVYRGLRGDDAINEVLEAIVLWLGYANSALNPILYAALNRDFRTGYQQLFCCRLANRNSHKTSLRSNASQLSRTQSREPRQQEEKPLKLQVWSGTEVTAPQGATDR
- procedure-summary: Radioligand binding
- setup-conditions: read-out: Ki nM (±SEM); [3H]tiotidine, cloned human receptor
property-name: Ki
Give the number first and the unit second.

Task item: Observed Ki on H2 (Homo sapiens) for COc1ccc2[nH]cc(CCN(C)C)c2c1 , please.
Reply: 7160 nM

###

- assayed-target: H1 (Homo sapiens)
- Sequence (P35367 whole entry): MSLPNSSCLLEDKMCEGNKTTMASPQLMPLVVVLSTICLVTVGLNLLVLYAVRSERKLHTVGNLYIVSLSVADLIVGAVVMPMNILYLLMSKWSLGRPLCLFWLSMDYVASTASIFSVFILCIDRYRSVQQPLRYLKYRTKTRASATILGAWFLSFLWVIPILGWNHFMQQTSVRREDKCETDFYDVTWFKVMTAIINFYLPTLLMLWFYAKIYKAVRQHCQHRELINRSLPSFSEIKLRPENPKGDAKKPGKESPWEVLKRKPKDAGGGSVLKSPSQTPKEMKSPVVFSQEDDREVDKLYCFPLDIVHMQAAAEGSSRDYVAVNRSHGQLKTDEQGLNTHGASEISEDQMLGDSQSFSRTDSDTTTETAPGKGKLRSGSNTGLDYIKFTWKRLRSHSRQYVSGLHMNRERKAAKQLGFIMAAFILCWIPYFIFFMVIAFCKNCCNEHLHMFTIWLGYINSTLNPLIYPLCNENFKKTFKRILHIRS
- procedure-summary: Radioligand binding
property-name: pKi
Field pKi (float): negative decimal logarithm of the concentration in molar.

Task item: GET /values?readout=pKi&item= COc1ccc2[nH]cc(CCN(C)C)c2c1.O=C(O)C(=O)O [5-MeO-DMT]
Reply: 5.12

###

- assayed-target: UniProtKB P08588
property-name: Ki

Task item: What is its Ki for UniProtKB P08588? Entry: COc1ccc2[nH]cc(CCN(C)C)c2c1.O=C(O)C(=O)O
Reply: > 10 µM

###

- assayed-target: D3 (Rattus norvegicus, UniProt P19020)
- procedure-summary: Radioligand binding
- setup-conditions: read-out: Ki nM (±SEM); [3H]N-methyl-spiperone, cloned rat receptor
property-name: Ki (nM)
Provide only the numeric value, understood in nM.

Task item: Lookup: Ki / D3 (Rattus norvegicus, UniProt P19020) / COc1ccc2[nH]cc(CCN(C)C)c2c1
Reply: 7090

###

- assayed-target: SERT (Homo sapiens)
- procedure-summary: Radioligand binding
property-name: Ki
Please format your answer as a value with the unit trailing.

Task item: For the compound shown here, COc1ccc2[nH]cc(CCN(C)C)c2c1.O=C(O)C(=O)O , give the reported Ki.
Reply: 3.6 µM

###

- assayed-target: Sigma-2 (Rattus norvegicus)
- Sequence (Q5U3Y7 whole entry): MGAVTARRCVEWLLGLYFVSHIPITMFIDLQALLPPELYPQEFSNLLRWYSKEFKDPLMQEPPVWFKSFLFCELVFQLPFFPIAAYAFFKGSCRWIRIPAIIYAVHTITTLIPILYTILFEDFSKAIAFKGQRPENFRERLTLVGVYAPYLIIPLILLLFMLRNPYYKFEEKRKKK
- procedure-summary: Radioligand binding
property-name: Ki
Lab note: write values as number then unit, every time.

Task item: What does the data say about its Ki? Entry: COc1ccc2[nH]cc(CCN(C)C)c2c1.O=C(O)C(=O)O
Reply: 3.69 µM

###

- assayed-target: D2 (Homo sapiens)
- procedure-summary: Radioligand binding
pKi: −log10 of the molar value.
property-name: pKi

Task item: Query: pKi; subject: COc1ccc2[nH]cc(CCN(C)C)c2c1.O=C(O)C(=O)O
Reply: < 5.00

###

- assayed-target: H4 (Homo sapiens, UniProt Q9H3N8)
- Sequence (Q9H3N8 whole entry): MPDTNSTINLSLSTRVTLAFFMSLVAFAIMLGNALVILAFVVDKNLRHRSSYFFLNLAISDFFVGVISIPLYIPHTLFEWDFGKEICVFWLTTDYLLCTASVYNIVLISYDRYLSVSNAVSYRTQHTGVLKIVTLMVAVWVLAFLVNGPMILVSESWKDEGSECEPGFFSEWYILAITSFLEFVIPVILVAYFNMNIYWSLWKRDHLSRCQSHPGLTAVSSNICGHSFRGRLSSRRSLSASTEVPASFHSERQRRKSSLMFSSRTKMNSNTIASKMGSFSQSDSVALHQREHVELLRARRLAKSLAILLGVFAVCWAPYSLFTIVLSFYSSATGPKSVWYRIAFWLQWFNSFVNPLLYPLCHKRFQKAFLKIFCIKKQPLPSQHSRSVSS
pKi: −log10 of the molar value.
property-name: pKi

Task item: Please state recorded pKi (tested on H4 (Homo sapiens, UniProt Q9H3N8)) of COc1ccc2[nH]cc(CCN(C)C)c2c1.O=C(O)C(=O)O
Reply: < 5.00

###

- assayed-target: β2 (Homo sapiens)
- procedure-summary: Radioligand binding
- setup-conditions: read-out: Ki nM (±SEM); [3H]CGP12177, cloned human receptor
property-name: Ki (nM)
Field format: number, assumed nM, no unit text.

Task item: Quick check: Ki of COc1ccc2[nH]cc(CCN(C)C)c2c1 ?
Reply: 4560

###

- assayed-target: MOR (Homo sapiens, UniProt P35372)
- Sequence (P35372 whole entry): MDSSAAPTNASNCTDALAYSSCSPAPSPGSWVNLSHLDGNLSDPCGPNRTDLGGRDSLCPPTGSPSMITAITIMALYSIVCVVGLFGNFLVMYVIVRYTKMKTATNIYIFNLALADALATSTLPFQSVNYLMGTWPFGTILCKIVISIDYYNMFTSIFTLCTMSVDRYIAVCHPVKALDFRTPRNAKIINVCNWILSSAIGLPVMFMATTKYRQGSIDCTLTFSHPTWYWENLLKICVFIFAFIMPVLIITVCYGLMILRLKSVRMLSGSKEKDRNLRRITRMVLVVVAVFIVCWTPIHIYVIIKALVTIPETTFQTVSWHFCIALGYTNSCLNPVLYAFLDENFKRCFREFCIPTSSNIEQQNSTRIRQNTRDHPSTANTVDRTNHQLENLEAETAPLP
property-name: Ki

Task item: Notebook entry, MOR (Homo sapiens, UniProt P35372) assay: Ki of COc1ccc2[nH]cc(CCN(C)C)c2c1.O=C(O)C(=O)O [5-MeO-DMT] = ?
Reply: > 10 µM

###

- assayed-target: D5 (Homo sapiens, UniProt P21918)
pKi: −log10 of the molar value.
property-name: pKi

Task item: Quick check: pKi on D5 (Homo sapiens, UniProt P21918), item COc1ccc2[nH]cc(CCN(C)C)c2c1.O=C(O)C(=O)O [5-MeO-DMT] ?
Reply: < 5.00

###

- assayed-target: H1 (Homo sapiens)
- procedure-summary: Radioligand binding
- setup-conditions: read-out: Ki nM (±SEM); [3H]pyrilamine, cloned human receptor
property-name: Ki

Task item: May I ask what Ki has been recorded for COc1ccc2[nH]cc(CCN(C)C)c2c1 ?
Reply: > 10000 nM

###

- assayed-target: M5 (Homo sapiens)
pKi: −log10 of the molar value.
property-name: pKi

Task item: Given the entry COc1ccc2[nH]cc(CCN(C)C)c2c1.O=C(O)C(=O)O [5-MeO-DMT] , report its measured pKi.
Reply: < 5.00

###

- assayed-target: β2 (Homo sapiens, UniProt P07550)
- Sequence (P07550 whole entry): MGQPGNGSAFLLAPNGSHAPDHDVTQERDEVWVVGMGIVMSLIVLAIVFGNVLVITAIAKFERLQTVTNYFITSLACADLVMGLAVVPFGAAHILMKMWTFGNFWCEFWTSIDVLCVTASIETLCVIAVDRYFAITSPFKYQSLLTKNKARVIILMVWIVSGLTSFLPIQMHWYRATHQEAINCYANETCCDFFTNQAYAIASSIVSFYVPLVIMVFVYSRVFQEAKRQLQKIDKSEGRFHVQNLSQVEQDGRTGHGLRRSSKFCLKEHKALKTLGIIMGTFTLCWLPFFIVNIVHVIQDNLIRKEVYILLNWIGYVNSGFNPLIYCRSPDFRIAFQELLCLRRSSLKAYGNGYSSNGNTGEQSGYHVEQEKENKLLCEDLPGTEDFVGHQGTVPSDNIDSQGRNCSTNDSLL
- procedure-summary: Radioligand binding
property-name: pKi
Conceptually, pKi converts a concentration in mol/L into minus its log10.

Task item: Reported pKi for COc1ccc2[nH]cc(CCN(C)C)c2c1.O=C(O)C(=O)O [5-MeO-DMT] : what is it?
Reply: 5.57

###

- assayed-target: α1D (Homo sapiens)
- Sequence (P25100 whole entry): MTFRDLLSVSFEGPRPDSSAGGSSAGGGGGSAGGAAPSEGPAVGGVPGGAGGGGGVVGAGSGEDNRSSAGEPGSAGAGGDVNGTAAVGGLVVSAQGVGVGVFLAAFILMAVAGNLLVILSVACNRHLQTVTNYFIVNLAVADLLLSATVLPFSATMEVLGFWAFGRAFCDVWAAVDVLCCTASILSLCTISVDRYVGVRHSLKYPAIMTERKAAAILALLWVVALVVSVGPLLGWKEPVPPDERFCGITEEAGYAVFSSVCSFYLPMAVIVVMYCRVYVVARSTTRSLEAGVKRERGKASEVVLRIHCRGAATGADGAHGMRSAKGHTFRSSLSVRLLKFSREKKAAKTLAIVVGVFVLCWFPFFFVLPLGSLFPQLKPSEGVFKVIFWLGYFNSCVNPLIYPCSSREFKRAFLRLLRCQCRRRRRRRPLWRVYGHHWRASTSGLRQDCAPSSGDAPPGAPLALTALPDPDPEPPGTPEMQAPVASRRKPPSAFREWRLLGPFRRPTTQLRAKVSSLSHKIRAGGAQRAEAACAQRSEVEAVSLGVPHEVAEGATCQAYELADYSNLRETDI
- procedure-summary: Radioligand binding
property-name: pKi
// returns pKi (minus log10 of molar concentration), number only

Task item: Query: pKi; subject: COc1ccc2[nH]cc(CCN(C)C)c2c1.O=C(O)C(=O)O
Reply: 6.36

###

- assayed-target: M2 (Homo sapiens)
- Sequence (P08172 1-466): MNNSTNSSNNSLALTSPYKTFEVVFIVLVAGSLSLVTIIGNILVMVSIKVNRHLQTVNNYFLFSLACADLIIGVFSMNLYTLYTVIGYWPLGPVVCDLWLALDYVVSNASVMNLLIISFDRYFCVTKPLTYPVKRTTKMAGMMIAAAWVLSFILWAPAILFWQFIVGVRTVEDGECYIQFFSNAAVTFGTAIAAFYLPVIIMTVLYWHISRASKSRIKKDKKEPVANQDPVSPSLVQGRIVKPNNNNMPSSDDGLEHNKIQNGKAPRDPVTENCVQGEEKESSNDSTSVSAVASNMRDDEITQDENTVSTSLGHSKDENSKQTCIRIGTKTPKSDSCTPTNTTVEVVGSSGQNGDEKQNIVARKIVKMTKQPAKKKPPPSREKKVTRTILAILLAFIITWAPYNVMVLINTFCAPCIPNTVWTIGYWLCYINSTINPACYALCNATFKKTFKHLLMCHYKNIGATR
pKi: −log10 of the molar value.
property-name: pKi

Task item: Name the reported pKi value associated with the compound COc1ccc2[nH]cc(CCN(C)C)c2c1.O=C(O)C(=O)O
Reply: < 5.00

###

- assayed-target: α1B (Homo sapiens)
- procedure-summary: Radioligand binding
- setup-conditions: read-out: Ki nM (±SEM); [3H]prazocin, cloned human receptor
property-name: Ki

Task item: Entry under review: COc1ccc2[nH]cc(CCN(C)C)c2c1 . Reported Ki?
Reply: 841 nM

###

- assayed-target: β3 (Homo sapiens)
- Sequence (P13945 whole entry): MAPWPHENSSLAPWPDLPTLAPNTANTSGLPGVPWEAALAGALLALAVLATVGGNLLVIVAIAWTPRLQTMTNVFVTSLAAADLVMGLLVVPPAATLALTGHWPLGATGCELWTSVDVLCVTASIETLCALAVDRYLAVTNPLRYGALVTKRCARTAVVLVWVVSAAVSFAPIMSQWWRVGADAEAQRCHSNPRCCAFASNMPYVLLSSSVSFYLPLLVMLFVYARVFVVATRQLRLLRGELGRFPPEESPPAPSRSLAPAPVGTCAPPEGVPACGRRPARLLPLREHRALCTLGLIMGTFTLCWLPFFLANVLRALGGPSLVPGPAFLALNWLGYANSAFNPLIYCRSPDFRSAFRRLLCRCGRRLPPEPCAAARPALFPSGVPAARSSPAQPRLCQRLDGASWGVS
property-name: Ki

Task item: Query: Ki; subject: COc1ccc2[nH]cc(CCN(C)C)c2c1.O=C(O)C(=O)O [5-MeO-DMT]
Reply: > 10 µM

###

- assayed-target: α2A (Homo sapiens, UniProt P08913)
- Sequence (P08913 whole entry): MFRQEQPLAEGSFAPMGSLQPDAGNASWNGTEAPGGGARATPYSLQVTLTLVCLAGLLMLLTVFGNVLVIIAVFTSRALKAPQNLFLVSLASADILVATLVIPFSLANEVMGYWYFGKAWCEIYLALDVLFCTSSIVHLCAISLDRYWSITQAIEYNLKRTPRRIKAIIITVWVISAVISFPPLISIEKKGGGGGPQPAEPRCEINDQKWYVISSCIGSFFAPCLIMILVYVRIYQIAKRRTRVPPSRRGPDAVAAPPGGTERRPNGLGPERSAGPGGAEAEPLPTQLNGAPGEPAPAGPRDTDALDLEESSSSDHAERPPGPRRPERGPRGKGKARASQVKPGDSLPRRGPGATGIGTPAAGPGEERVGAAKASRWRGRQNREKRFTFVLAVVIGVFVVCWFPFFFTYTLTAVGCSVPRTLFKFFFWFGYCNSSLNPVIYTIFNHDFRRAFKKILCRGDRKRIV
- procedure-summary: Radioligand binding
property-name: pKi
// pKi: -log10(molar conc.)

Task item: # returns recorded pKi (system: α2A (Homo sapiens, UniProt P08913)) for COc1ccc2[nH]cc(CCN(C)C)c2c1.O=C(O)C(=O)O
Reply: 6.03

###

- assayed-target: α1A (Homo sapiens, UniProt P35348)
- Sequence (P35348 1-466): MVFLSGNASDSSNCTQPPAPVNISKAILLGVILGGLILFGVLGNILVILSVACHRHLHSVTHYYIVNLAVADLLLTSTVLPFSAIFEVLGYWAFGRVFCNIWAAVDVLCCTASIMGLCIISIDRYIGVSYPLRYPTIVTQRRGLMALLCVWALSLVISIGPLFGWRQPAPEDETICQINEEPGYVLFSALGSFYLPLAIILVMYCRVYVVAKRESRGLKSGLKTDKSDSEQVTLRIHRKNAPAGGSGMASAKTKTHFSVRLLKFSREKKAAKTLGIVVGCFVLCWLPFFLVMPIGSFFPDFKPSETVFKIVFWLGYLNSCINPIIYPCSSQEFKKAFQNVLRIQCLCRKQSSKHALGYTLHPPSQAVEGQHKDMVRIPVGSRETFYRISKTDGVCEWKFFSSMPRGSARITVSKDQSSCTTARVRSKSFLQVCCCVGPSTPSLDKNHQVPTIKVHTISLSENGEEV
- procedure-summary: Radioligand binding
property-name: Ki (µM)
The answer is to be given in µM; state only the numeric part.

Task item: Field request: Ki | item: COc1ccc2[nH]cc(CCN(C)C)c2c1.O=C(O)C(=O)O
Reply: 4.37

###

- assayed-target: KOR (Homo sapiens, UniProt P41145)
- Sequence (P41145 whole entry): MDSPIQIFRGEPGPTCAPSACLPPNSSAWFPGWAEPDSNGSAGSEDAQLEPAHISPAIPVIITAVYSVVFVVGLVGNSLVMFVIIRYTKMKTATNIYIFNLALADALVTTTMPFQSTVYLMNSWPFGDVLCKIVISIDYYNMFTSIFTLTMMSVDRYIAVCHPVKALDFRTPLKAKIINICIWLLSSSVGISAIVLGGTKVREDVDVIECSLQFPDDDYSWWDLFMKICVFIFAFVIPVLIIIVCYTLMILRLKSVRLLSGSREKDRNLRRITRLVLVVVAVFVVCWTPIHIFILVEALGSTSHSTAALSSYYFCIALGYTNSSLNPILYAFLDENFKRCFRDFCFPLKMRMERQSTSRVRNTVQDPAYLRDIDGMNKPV
pKi: −log10 of the molar value.
property-name: pKi

Task item: pKi for COc1ccc2[nH]cc(CCN(C)C)c2c1.O=C(O)C(=O)O [5-MeO-DMT] ?
Reply: < 5.00

###

- assayed-target: DOR (Homo sapiens, UniProt P41143)
- Sequence (P41143 whole entry): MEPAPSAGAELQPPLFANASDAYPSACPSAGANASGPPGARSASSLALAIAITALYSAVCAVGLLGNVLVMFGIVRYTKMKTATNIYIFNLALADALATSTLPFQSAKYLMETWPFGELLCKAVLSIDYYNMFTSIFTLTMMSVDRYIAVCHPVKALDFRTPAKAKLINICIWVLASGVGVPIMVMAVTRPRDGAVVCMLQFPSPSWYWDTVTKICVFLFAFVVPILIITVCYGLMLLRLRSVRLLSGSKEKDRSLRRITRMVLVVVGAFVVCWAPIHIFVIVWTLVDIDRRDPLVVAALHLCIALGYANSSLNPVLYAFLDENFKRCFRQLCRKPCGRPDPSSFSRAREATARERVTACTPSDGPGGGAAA
property-name: Ki

Task item: Value lookup for Ki; key = COc1ccc2[nH]cc(CCN(C)C)c2c1.O=C(O)C(=O)O
Reply: > 10 µM

###

- assayed-target: M1 (Homo sapiens)
- Sequence (P11229 whole entry): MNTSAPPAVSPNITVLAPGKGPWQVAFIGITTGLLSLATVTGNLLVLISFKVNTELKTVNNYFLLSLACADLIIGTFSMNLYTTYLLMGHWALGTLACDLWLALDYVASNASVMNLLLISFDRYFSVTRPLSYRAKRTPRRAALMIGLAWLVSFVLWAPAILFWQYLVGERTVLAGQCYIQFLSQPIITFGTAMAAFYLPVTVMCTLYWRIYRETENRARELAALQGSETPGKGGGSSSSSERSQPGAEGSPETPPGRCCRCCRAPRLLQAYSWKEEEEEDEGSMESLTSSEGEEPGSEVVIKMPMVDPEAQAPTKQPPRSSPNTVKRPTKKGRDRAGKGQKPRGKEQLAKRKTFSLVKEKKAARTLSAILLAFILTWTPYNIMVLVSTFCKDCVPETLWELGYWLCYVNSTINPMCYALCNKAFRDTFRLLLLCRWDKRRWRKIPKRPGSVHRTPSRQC
property-name: Ki

Task item: Lab note: need Ki with M1 (Homo sapiens) for entry COc1ccc2[nH]cc(CCN(C)C)c2c1.O=C(O)C(=O)O [5-MeO-DMT] , please look it up.
Reply: > 10 µM

###

- assayed-target: α1A (Homo sapiens, UniProt P35348)
- procedure-summary: Radioligand binding
- setup-conditions: read-out: Ki nM (±SEM); [3H]prazocin, cloned human receptor
property-name: Ki (nM)
Kindly provide the numeric value in nM only, without the unit symbol.

Task item: Returns the measured Ki for the input compound. Input: COc1ccc2[nH]cc(CCN(C)C)c2c1
Reply: 1010

The measurements presented in this section are drawn from paper PMC3796951.
